Data provenance: patent US20160130351A1

target: soluble human IL-6Rc (shuIL-6Rc) recombinant fusion protein of IL-6R and IL-6 (human) (UniProt P08887); experiment: SPR (Biacore 2000), mAb captured on anti-human IgG Fc, analyte in solution, 25 C, 1:1 Langmuir
Measured Attribute: kon (M⁻¹ s⁻¹)
Give the number; M⁻¹ s⁻¹ is assumed, so skip it.

Solved cases (3 shown):
# Binder, kon, M⁻¹ s⁻¹
rows = [
    ("NI-1201-B antibody (antibody, V domains shown) VH: QVQLVQSGAEVKKPGSSVKVSCKASGGTFSSYAISWVRQAPGQGLEWMGGIIPLFDTTKYAQKFQGRVTITADESTSTAYMELSSLRSEDTAVYYCARDRDILTDYYPLGGMDVWGQGTTVTVSS VL: AIQLTQSPSSLSASVGDRVTITCRASQGISSVLAWYQQKPGKAPKLLIYDASSLESGVPSRFSGSGSGTDFTLTISSLQPEDFATYYCQQSNSYPLTFGGGTKVEIKR", 53400),
    ("NI-1201-A antibody (antibody, V domains shown) VH: QVQLVQSGAEVKKPGSSVKVSCKASGGTFSSYAISWVRQAPGQGLEWMGGIIPLFDTTKYAQKFQGRVTITADESTSTAYMELSSLRSEDTAVYYCARDRDILTDYYPMGGMDVWGQGTTVTVSS VL: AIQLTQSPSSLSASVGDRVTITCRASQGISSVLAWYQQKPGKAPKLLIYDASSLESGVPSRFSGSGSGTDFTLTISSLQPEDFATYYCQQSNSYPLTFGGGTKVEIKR", 50100),
    ("NI-1201-D antibody (antibody, V domains shown) VH: QVQLVQSGAEVKKPGSSVKVSCKASGGTFSSYAISWVRQAPGQGLEWMGGIIPAFETTKYAQKFQGRVTITADESTSTAYMELSSLRSEDTAVYYCARDRDILTDYYPLGGMDVWGQGTTVTVSS VL: AIQLTQSPSSLSASVGDRVTITCRASQGISSVLAWYQQKPGKAPKLLIYDASSLESGVPSRFSGSGSGTDFTLTISSLQPEDFATYYCQQSQSYPLTFGGGTKVEIKR", 45300),
]

What does the record list as kon for NI-1201 wild type (NI-1201-WT) antibody (antibody, V domains shown, Fully human monoclonal IgG (captured by anti-human IgG Fc in Biacore); also called 39B9 VL1) VH: QVQLVQSGAEVKKPGSSVKVSCKASGGTFSSYAISWVRQAPGQGLEWMGGIIPLFDTTKYAQQFQGRVTITADESTSTAYMELSSLRSEDTAVFYCARDRDILTDYYPMGGMDVWGQGTTVTVSS VL: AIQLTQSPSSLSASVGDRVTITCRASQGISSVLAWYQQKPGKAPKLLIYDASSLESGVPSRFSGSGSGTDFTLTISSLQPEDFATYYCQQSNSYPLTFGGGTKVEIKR ?
43100
